System: MDA-MB-435 melanoma
Assay Overview: NCI-60 one-dose screen, 48 h (100 = growth as untreated, 0 = no growth, -100 = all killed)
Conditions Used: 10 µM unless noted
The panel holds about 83,000 compounds, 20% with a hit somewhere; the sample as a whole holds those more often.
# growth listing for each entry below
Numbers only; they are read as %.

Q: What value of growth has been recorded for this entry: O=C(O)COc1ccc2c(=O)c3sc4c(=O)c5ccccc5c(=O)c4c3c(=O)c2c1
Ans: -88.6

Q: What value of growth has been recorded for this entry: COc1ccc(C(=O)c2cc(F)c(F)c(OC)c2F)cc1OC(=O)CCl
Ans: -27.7

Q: What value of growth has been recorded for this entry: COC(=O)/C=C1\SC(=Nc2ccc(F)cc2)N(CCc2c[nH]c3ccccc23)C1=O
Ans: 114

Q: What value of growth has been recorded for this entry: CCn1cc(C(=O)O)c(=O)c2cc(F)c(N3CCN(CC(=O)Nc4ccc(/C(C)=N/OC)cc4)CC3)cc21
Ans: 102

Q: What value of growth has been recorded for this entry: CC(=O)Nc1c(C(=O)Nc2ccccc2)sc2nc3c(cc12)C(OC(C)=O)CCC3 (stereo not given)
Ans: 35.3

---

System: HCC-2998 colon
Assay Overview: NCI-60 one-dose screen, 48 h
Conditions Used: 10 µM unless noted
Method: Growth inhibition of the HCC-2998 human tumor cell line is measured as a screen for anti-cancer activity. Cells are grown in 96 well plates and exposed to the test compound for 48 hours. Compounds are tested at a single concentration, which is 10^-5 M for most compounds. The reported endpoint is percent growth (GI% or GIPRCNT), where numbers from 0 - 100% represent growth inhibition, and numbers from -100% - 0 represent cell death. For example, a value of 40 represents 60% growth inhibition. […]
About 83,000 compounds went through this panel and 20% of them were active in at least one assay; those are over-represented in the sample as a whole. Active and inactive are the calls of the source. The calls were made as follows: active = growth percent below 10; inactive = the rest.
API: response.call in active, inactive

Nc1ccc2c(c1)C(=O)C(=O)c1c-2nc2ccccn12
inactive
Cc1cc2ccccc2c[n+]1CC(=O)c1ccc(-c2ccccc2)cc1
inactive
CC1(C)[C@@H](O)CC[C@]2(C)[C@H]3CC[C@@H]4[C@H]5[C@H](c6cn(-c7ccccc7)nn6)CC[C@]5(CO)CC[C@@]4(C)[C@]3(C)CC[C@@H]12
inactive
C[C@H]1[C@H](C)CC[C@]2(C(=O)OCCCC[P+](c3ccccc3)(c3ccccc3)c3ccccc3)CC[C@]3(C)C(=CC[C@@H]4[C@@]5(C)CC[C@H](OC(=O)C(Cl)Cl)C(C)(C)[C@@H]5CC[C@]43C)[C@H]12
active
COc1ccc(OCC(=O)OC(C)C)cc1
inactive

Q: Given COc1c(O)cc2oc3cc(O[C@@H]4OC(C)[C@@H](O)[C@H](O)C4O)c(CC=C(C)C)c(O)c3c(=O)c2c1CC=C(C)C (stereo partly drawn) , state the outcome it received in this test.
Ans: inactive

Q: Given COc1cccc2c1-c1ccccc1C2=O , state the outcome it received in this test.
Ans: inactive

Q: Given CN1C(=O)c2cc(Cl)nc3c(NC(=O)c4cccc(Cl)c4)c(Cl)c(NC(=O)c4cccc(Cl)c4)c1c23 , state the outcome it received in this test.
Ans: active

---

Test system: M14 melanoma
Assay Overview: NCI-60 one-dose screen, 48 h (100 = growth as untreated, 0 = no growth, -100 = all killed)
Conditions Used: 10 µM unless noted
Compounds without any hit were thinned out: in the full panel of roughly 83,000, 20% have a hit.
# growth listing for each entry below
Numbers only; they are read as %.

CC(=O)Oc1c2c(nc3c1c1ccccc1n3Cc1ccccc1)-c1ccccc1C2
88.3

Q: What value of growth has been recorded for this entry: COc1cc2c(cc1OC)C(Sc1ccc(Cl)cc1)c1c(nc(N)c(C#N)c1N)O2 (centres undefined)
Ans: -21.2

Q: What value of growth has been recorded for this entry: COc1ccc2nc(-c3ccc(Cl)cc3)cc(-c3nnc(SC/C(=N/O)c4ccccc4)o3)c2c1
Ans: 25.2

Q: What value of growth has been recorded for this entry: COc1cccc(NC(=O)Nc2ccc(Oc3ncnc4[nH]c(C)c(C)c34)cc2)c1
Ans: 100

Q: What value of growth has been recorded for this entry: C=CCn1c(CN2CCN(c3cc4c(cc3F)c(=O)c(C(=O)O)cn4C3CC3)CC2)n[nH]c1=S
Ans: 107

Q: What value of growth has been recorded for this entry: C=CCn1c(SCC(=O)Nc2ccc(C(=O)/C=C/c3cc(OC)c(OC)c(OC)c3)cc2)nnc1-c1ccc(Cl)cc1
Ans: 12.6

Q: What value of growth has been recorded for this entry: CN(C)c1ccc(-c2ccc3[nH]c(=O)nc(-c4ccc(F)cc4)c3c2)cn1
Ans: 22.7

---

Test system: MDA-MB-435 melanoma
Assay Overview: NCI-60 one-dose screen, 48 h (100 = growth as untreated, 0 = no growth, -100 = all killed)
Conditions Used: 10 µM unless noted
Compounds without any hit were thinned out: in the full panel of roughly 83,000, 20% have a hit.
Outcome Measure: growth (%)
Numbers only; they are read as %.

CCCCc1n(Cc2ccc3ccccc3n2)cc[n+]1Cc1ccc2ccccc2c1
1.33

Q: What value of growth has been recorded for this entry: C#CCN1C(=O)c2ccccc2N(CC#C)C12CCN(Cc1cn(CC(=O)Nc3ccccc3C(N)=O)nn1)CC2
Ans: 91.9

Q: What value of growth has been recorded for this entry: CC1=C(CCCOC(=O)NCCCl)C2=C(C)C3(CC3)[C@@](C)(O)C(=O)C2=C1
Ans: 84.8

---

Test system: OVCAR-8 ovarian
Assay Overview: NCI-60 one-dose screen, 48 h
Conditions Used: 10 µM unless noted
About 83,000 compounds went through this panel and 20% of them were active in at least one assay; those are over-represented in the sample as a whole. Active and inactive are the calls of the source. The calls were made as follows: active = growth percent below 10; inactive = the rest.
API: response.call in active, inactive

COC(=O)CCc1n(Cc2ccc3ccccc3c2)c2ccccc2[n+]1Cc1ccc2ccccc2c1
active
Cc1cc(C)c(NC(=O)c2sc3nc4c(cc3c2N)CCCCCC4)c(C)c1
inactive
COc1cc(-c2csc(NC(=O)Nc3ccc(C(F)(F)F)cc3)n2)cc(OC)c1OC
active
COc1ccc(C(=O)c2cc(OC)c(C)c(OC)c2)cc1OC(=O)CCl
inactive
c1ccc(-c2n(Cc3ccc4ccccc4n3)cc[n+]2Cc2ccc3ccccc3n2)cc1
inactive

Q: Given CCCCCOC(=O)c1ccccc1O , state the outcome it received in this test.
Ans: inactive

Q: Given Nc1cccc(C(=O)Nc2ccc3c(O)c(N=Nc4ccc(N=Nc5ccc(S(=O)(=O)O)cc5)cc4)c(S(=O)(=O)O)cc3c2)c1 , state the outcome it received in this test.
Ans: inactive

Q: Given CCN1CCN(Cc2ccc(NC(=O)c3cccc(C#Cc4cccc5[nH]nc(N)c45)c3)cc2C(F)(F)F)CC1 , state the outcome it received in this test.
Ans: active

Q: Given COc1ccccc1N1CCN(CCCOc2ccc(C(=O)/C=C3/C(=O)Nc4ccccc43)cc2)CC1 , state the outcome it received in this test.
Ans: inactive

Q: Given CCCCn1c(=O)c(/C=C/C(=O)/C=C/c2ccc(O)c(OC)c2)cc2ccc(Cl)cc21 , state the outcome it received in this test.
Ans: active

Q: Given O=C(CCCCCCCCC(=O)Nc1cccc(C2=NCCN2)c1)Nc1cccc(C2=NCCN2)c1 , state the outcome it received in this test.
Ans: inactive

Q: Given C=C1C(=O)O[C@H]2[C@H]1CC/C(COC(=O)c1cccnc1)=C\CC[C@@]1(C)O[C@@H]21 , state the outcome it received in this test.
Ans: inactive

Q: Given COc1ccc(-c2cc(-c3nnc(SCC(=O)Nc4ccc(/C(C)=N\O)cc4)n3-c3ccccc3)c3cc(OC)ccc3n2)cc1 , state the outcome it received in this test.
Ans: inactive

Q: Given CCCCCCCc1n(Cc2ccc3ccccc3c2)c2ccccc2[n+]1Cc1ccc2ccccc2c1 , state the outcome it received in this test.
Ans: active

Q: Given COc1cc(C2=N/C(=C\c3cc4ccccc4nc3Oc3ccccc3)C(=O)N2C(=N)N)cc(OC)c1OC , state the outcome it received in this test.
Ans: inactive

Q: Given O=C(Nc1ccc(N=Cc2ccccc2O)cc1)NC1C=c2ccccc2=CC1 (stereo unspecified) , state the outcome it received in this test.
Ans: inactive

Q: Given COc1cc(C2=NNC(c3ccc(N(C)C)cc3)C2)cc(OC)c1OC (stereo unspecified) , state the outcome it received in this test.
Ans: inactive

Q: Given CC(=O)Nc1ccc2c(c1)Cc1cc(F)ccc1-2 , state the outcome it received in this test.
Ans: inactive

Q: Given N#CC1(C#N)C2=C(CCCC2)NC(c2c(F)cccc2Cl)C1(C#N)C#N (stereo unspecified) , state the outcome it received in this test.
Ans: inactive

Q: Given O=CN1N=C(c2ccc(F)cc2)CC1c1cccc(Nc2ccnc3cc(C(F)(F)F)ccc23)c1 (stereo unspecified) , state the outcome it received in this test.
Ans: inactive
